B1: FERM and PDZ domain-containing protein 4, residues 75 to 154; numbered along this chain, Q14CM0 (parent)
chain: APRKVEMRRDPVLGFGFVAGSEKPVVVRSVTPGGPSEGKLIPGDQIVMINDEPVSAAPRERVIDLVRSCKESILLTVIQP

Variants of: B1
experimental_details: abundance fitness (aPCA) (normalised: wild type 0, dead -1); higher = more abundant; growth selection in yeast, the domain comes from the species named
condition_details: Homo sapiens
# abundance fitness values compiled below
No unit in the answer, only the number.

Ask: Value lookup for abundance fitness; key = D44R
Reply: -1.01

Ask: Value lookup for abundance fitness; key = V47Y
Reply: -0.019

Ask: Value lookup for abundance fitness; key = T76D
Reply: -0.073

***
Ask: Value lookup for abundance fitness; key = K70A
Reply: -0.1

Ask: Value lookup for abundance fitness; key = G16V
Reply: -1.08

Ask: Value lookup for abundance fitness; key = A19T
Reply: -0.005

Ask: Value lookup for abundance fitness; key = S72I
Reply: -0.177

Ask: Value lookup for abundance fitness; key = V77I
Reply: -0.098

Ask: Value lookup for abundance fitness; key = G38P
Reply: -0.54

Ask: Value lookup for abundance fitness; key = S72P
Reply: -0.284
